Entry source: PubChem BioAssay (NCI)

test system: SF-295 CNS; experiment: NCI-60 one-dose screen, 48 h (100 = growth as untreated, 0 = no growth, -100 = all killed); conditions: 10 µM unless noted
About 83,000 compounds went through this panel and 20% of them were active in at least one assay; those are over-represented in the sample as a whole.
Could you mark each record condition met if its growth falls strictly under 20%, and condition not met if it equals or exceeds it?

> print(dat)
                                   compound     assigned.class
1    CC(=O)N1CC(Nc2ccc(OC(F)(F)F)cc2)=CC1=O      condition met
2  CN1CCN(Cc2ccc(NC(=O)c3[nH]ncc3Nc3ncnc4[nH]ccc34)cc2)CC1      condition met
3  CC(=O)OC1Oc2cc(C)c(C)cc2-c2oc(=O)c(-c3cc4ccc(N(C)C)cc4oc3=O)cc21 (stereo not given)  condition not met
4  Nc1c(C(=O)Nc2cccc3c2OCCO3)sc2nc3c(cc12)C(=O)CCC3  condition not met
5    Cc1ccc2c(c1)n([O-])c1cc(Cl)ccc1[n+]2=O  condition not met

Is 20% strictly greater than the compound's reported growth? compound: "C=C(CN1CCN(c2cccc(C(F)(F)F)n2)CC1)c1ccc(C(=O)Nc2ccccc2N)cc1" condition met
